target: UDP-glucuronosyltransferase 1A1 (Homo sapiens, UniProt P22309); test: Inhibition of human recombinant UGT1A1 expressed in supersomes assessed as scopoletin glucuronidation by fluorescence analysis
Sequence (P22309 whole entry): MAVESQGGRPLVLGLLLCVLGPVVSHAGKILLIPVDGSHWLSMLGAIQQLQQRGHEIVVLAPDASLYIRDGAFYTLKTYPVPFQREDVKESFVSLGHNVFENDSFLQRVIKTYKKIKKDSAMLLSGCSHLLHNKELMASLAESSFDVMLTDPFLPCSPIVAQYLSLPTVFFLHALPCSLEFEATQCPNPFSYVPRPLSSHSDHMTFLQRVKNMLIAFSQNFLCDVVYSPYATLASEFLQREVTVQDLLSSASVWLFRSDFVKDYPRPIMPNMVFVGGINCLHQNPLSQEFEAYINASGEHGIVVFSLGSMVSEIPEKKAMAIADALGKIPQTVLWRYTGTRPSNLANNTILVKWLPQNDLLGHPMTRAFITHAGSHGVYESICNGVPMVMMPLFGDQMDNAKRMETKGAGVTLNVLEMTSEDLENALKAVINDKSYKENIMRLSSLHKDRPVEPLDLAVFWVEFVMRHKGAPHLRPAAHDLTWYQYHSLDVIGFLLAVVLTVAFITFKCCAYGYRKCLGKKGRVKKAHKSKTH
pIC50: −log10 of the molar value.

- compound: "C[C@@H]1CCO[C@H]2Cn3cc(C(=O)NCc4ccc(F)cc4F)c(=O)c(O)c3C(=O)N12 [DOLUTEGRAVIR]"
  pIC50: "< 4.00"

----------
Target: BCRP (ABCG2) (Homo sapiens, UniProt Q9UNQ0)
Sequence (Q9UNQ0 whole entry): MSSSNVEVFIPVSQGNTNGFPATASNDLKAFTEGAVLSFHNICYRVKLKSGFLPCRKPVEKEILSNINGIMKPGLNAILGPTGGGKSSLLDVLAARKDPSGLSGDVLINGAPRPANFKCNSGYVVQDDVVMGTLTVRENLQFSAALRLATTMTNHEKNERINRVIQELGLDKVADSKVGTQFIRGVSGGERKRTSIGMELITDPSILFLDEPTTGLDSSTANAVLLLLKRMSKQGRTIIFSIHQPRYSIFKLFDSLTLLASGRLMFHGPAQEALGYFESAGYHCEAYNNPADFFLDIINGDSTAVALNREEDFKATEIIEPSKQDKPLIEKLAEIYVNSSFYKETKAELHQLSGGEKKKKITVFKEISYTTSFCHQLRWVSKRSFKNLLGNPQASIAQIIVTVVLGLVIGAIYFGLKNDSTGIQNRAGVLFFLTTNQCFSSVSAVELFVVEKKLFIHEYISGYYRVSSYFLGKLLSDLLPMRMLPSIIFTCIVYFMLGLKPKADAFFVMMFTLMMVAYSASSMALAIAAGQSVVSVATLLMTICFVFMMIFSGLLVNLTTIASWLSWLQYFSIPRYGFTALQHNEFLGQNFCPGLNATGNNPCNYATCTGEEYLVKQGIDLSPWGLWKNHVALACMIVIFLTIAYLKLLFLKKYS
Test: Activity at human BCRP expressed in MDCK2 cells assessed as basolateral to apical mass balance at 3 uM by liquid scintillation counting analysis in presence of 3 uM P-gp and BCRP inhibitor GF120918
Type: ADME, cell-based, MDCK-II
Conditions: with GF120918 (P-gp and BCRP inhibitor), read-out: Activity

- molecule: "C[C@@H]1CCO[C@H]2Cn3cc(C(=O)NCc4ccc(F)cc4F)c(=O)c(O)c3C(=O)N12"
  recovery at 3 µM / %: 76

----------
assay: Drug excretion in human urine at 20 mg, po; format: ADME, tissue-based; details: read-out: Drug excretion
observed property: dose excreted (%)

- molecule: "C[C@@H]1CCO[C@H]2Cn3cc(C(=O)NCc4ccc(F)cc4F)c(=O)c(O)c3C(=O)N12"
  unit name: "%"
  numeric value: 31.6

----------
molecular target: CYP2C9 (Homo sapiens); test: Inhibition of CYP2C9 in human liver microsomes using diclofenac as substrate at 100 uM preincubated for 20 mins with substrate prior to initiation of reaction with NADPH by HPLC analysis; type: ADME; conditions: probe diclofenac
Sequence (P11712 whole entry): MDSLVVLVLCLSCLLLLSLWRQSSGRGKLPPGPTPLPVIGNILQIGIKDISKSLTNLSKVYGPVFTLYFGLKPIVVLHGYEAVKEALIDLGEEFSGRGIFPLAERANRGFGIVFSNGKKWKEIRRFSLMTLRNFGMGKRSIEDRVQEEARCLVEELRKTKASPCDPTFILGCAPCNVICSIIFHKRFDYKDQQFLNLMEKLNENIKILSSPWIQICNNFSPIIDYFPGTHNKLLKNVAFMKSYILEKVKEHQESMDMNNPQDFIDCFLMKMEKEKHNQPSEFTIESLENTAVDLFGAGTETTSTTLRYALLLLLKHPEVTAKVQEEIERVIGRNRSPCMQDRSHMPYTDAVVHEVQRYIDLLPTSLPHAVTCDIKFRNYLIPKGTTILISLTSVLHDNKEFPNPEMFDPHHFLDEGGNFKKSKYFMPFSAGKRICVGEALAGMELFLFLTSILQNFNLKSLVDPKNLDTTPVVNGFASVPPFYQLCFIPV

- molecule: "C[C@@H]1CCO[C@H]2Cn3cc(C(=O)NCc4ccc(F)cc4F)c(=O)c(O)c3C(=O)N12"
  inhibition at 100 µM: "20%"

----------
biological target: UniProtKB P33261; test: Inhibition of CYP2C19 in human liver microsomes using S-mephenytoin as substrate at 100 uM preincubated for 20 mins with substrate prior to initiation of reaction with NADPH by HPLC analysis; format: ADME; conditions: probe S-mephenytoin
Sequence (P33261 whole entry): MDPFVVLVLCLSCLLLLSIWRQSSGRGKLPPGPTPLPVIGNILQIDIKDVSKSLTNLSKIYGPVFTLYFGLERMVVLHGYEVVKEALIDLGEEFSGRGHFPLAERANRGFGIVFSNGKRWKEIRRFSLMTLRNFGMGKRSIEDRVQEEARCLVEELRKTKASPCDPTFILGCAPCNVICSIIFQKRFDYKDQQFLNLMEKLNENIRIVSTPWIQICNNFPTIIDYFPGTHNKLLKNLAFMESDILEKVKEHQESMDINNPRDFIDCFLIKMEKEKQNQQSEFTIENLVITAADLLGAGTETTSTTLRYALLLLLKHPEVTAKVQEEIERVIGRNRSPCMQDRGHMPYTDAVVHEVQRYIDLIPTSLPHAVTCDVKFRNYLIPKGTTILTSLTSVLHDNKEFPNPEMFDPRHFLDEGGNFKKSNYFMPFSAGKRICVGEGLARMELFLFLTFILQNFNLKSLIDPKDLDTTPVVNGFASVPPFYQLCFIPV
observed property: inhibition at 100 µM (%)

- compound: "C[C@@H]1CCO[C@H]2Cn3cc(C(=O)NCc4ccc(F)cc4F)c(=O)c(O)c3C(=O)N12 [DOLUTEGRAVIR]"
  numeric value: 20

----------
Target: CYP2B6 (Homo sapiens, UniProt P20813)
Sequence (P20813 whole entry): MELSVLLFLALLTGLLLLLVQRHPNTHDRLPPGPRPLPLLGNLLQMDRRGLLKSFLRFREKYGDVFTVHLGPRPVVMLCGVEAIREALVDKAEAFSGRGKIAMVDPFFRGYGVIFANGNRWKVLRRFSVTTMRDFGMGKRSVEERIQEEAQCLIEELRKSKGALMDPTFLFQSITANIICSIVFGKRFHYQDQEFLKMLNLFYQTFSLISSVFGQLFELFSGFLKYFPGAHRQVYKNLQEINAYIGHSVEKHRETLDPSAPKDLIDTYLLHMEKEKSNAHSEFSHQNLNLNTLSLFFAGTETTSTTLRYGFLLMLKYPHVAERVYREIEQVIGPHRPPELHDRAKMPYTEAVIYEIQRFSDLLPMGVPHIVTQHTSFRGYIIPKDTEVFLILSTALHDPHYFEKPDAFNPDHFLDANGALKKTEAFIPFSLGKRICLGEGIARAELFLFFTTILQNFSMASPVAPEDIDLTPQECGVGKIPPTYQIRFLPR
Experiment: Inhibition of CYP2B6 in human liver microsomes using bupropion as substrate at 100 uM preincubated for 20 mins with substrate prior to initiation of reaction with NADPH by HPLC analysis
Type: ADME
Details: probe bupropion
observed property: inhibition at 100 µM (%)

- compound: "C[C@@H]1CCO[C@H]2Cn3cc(C(=O)NCc4ccc(F)cc4F)c(=O)c(O)c3C(=O)N12 [DOLUTEGRAVIR]"
  observed property: "inhibition at 100 µM"
  numeric value: 20

----------
target: Cytochrome P450 2D6 (Homo sapiens, UniProt P10635); assay: Metabolism-dependent inhibition of CYP2D6 in human liver microsomes using bufuralol as substrate preincubated for 20 mins with NADPH prior to initiation of reaction with probe substrate by HPLC analysis; type: ADME
Sequence (P10635 whole entry): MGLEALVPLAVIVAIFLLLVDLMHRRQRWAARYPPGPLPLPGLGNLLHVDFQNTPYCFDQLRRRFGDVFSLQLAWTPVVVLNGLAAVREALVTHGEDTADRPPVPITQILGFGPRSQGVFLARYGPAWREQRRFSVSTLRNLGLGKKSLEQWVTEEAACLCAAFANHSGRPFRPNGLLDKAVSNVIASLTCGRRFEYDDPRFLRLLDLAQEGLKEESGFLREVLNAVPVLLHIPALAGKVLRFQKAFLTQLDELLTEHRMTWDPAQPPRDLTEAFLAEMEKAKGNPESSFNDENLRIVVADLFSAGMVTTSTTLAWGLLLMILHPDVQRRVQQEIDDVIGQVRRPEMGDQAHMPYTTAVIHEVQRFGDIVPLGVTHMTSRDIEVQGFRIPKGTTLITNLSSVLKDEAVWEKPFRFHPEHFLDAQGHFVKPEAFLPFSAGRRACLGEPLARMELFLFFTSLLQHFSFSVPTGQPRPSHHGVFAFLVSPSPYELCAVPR
pIC50: −log10 of the molar value.

- compound: "C[C@@H]1CCO[C@H]2Cn3cc(C(=O)NCc4ccc(F)cc4F)c(=O)c(O)c3C(=O)N12 [DOLUTEGRAVIR]"
  pIC50: "< 4.00"

----------
target: Cytochrome P450 2C9 (Homo sapiens); assay: Inhibition of CYP2C9 in human liver microsomes using diclofenac as substrate preincubated for 20 mins with substrate prior to initiation of reaction with NADPH by HPLC analysis; assay type: ADME
Sequence (P11712 whole entry): as the sequence (P11712 whole entry) above
observed property: IC50

- molecule: "C[C@@H]1CCO[C@H]2Cn3cc(C(=O)NCc4ccc(F)cc4F)c(=O)c(O)c3C(=O)N12"
  observed property: "IC50"
  result: "> 100 µM"

----------
molecular target: MDR1 (P-gp, ABCB1) (Homo sapiens, UniProt P08183); assay: Activity at human MDR1 expressed in MDCK2 cells assessed as apical to basolateral mass balance at 3 uM by liquid scintillation counting analysis; assay type: ADME, cell-based, MDCK-II; conditions: MDCK-MDR1, read-out: Activity
Sequence (P08183 whole entry): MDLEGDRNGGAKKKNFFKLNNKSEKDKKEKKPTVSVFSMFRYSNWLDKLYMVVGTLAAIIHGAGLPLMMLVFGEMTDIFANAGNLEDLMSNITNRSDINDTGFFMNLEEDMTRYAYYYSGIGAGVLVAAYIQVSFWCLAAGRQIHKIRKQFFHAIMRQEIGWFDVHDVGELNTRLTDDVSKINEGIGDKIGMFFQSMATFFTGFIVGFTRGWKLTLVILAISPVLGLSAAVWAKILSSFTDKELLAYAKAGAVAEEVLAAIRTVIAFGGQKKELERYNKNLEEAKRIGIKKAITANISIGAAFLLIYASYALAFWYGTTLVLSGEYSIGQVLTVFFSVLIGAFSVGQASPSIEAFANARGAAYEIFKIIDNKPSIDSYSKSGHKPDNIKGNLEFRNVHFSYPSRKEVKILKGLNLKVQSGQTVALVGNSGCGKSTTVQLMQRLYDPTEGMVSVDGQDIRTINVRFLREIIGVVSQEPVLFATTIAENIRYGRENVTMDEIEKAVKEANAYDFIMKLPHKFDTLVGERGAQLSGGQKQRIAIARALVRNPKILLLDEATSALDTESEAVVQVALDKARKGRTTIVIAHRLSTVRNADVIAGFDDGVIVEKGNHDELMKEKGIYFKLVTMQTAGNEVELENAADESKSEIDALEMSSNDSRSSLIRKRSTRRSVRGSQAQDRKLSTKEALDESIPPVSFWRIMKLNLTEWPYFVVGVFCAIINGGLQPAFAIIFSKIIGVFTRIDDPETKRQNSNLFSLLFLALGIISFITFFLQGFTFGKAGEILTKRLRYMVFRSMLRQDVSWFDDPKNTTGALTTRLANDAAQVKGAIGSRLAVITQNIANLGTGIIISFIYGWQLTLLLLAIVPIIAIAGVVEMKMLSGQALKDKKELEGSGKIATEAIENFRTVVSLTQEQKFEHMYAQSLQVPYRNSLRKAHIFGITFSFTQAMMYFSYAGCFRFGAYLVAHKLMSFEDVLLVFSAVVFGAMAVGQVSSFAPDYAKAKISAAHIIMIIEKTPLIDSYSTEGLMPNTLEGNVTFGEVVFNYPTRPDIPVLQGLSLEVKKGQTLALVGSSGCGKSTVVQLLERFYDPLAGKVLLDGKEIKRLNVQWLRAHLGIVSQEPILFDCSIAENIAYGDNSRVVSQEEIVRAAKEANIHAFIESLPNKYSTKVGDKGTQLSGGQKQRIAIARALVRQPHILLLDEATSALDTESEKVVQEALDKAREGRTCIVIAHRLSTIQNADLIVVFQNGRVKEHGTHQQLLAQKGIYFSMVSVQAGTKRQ
observed property: recovery at 3 µM (%)

- molecule: "C[C@@H]1CCO[C@H]2Cn3cc(C(=O)NCc4ccc(F)cc4F)c(=O)c(O)c3C(=O)N12"
  tested system: "MDR1 (P-gp, ABCB1) (Homo sapiens, UniProt P08183)"
  observed property: "recovery at 3 µM"
  unit name: "%"
  numeric value: 84

----------
target: BCRP (ABCG2) (Homo sapiens, UniProt Q9UNQ0); assay: Activity at human BCRP expressed in MDCK2 cells assessed as apical to basolateral mass balance at 3 uM by liquid scintillation counting analysis; assay type: ADME, cell-based, MDCK-II; details: read-out: Activity

- compound: "C[C@@H]1CCO[C@H]2Cn3cc(C(=O)NCc4ccc(F)cc4F)c(=O)c(O)c3C(=O)N12 [DOLUTEGRAVIR]"
  recovery at 3 µM: "81%"

----------
assay: In vitro passive membrane permeability across dog MDCK2 cells at 3 uM using fasted state-simulated intestinal fluid buffer at pH 7.4 on donor side and 1% human serum albumin at pH 7.4 on receiver side by liquid scintillation counting analysis; assay type: ADME, cell-based, Canis lupus familiaris, MDCK-II; conditions: MDCK, read-out: permeability

- molecule: "C[C@@H]1CCO[C@H]2Cn3cc(C(=O)NCc4ccc(F)cc4F)c(=O)c(O)c3C(=O)N12 [DOLUTEGRAVIR]"
  Papp at 3 µM [nm/s]: 252

----------
molecular target: Cytochrome P450 2C8 (Homo sapiens); test: Metabolism-dependent inhibition of CYP2C8 in human liver microsomes using rosiglitazone as substrate preincubated for 20 mins with NADPH prior to initiation of reaction with probe substrate by HPLC analysis; format: ADME
Sequence (P10632 whole entry): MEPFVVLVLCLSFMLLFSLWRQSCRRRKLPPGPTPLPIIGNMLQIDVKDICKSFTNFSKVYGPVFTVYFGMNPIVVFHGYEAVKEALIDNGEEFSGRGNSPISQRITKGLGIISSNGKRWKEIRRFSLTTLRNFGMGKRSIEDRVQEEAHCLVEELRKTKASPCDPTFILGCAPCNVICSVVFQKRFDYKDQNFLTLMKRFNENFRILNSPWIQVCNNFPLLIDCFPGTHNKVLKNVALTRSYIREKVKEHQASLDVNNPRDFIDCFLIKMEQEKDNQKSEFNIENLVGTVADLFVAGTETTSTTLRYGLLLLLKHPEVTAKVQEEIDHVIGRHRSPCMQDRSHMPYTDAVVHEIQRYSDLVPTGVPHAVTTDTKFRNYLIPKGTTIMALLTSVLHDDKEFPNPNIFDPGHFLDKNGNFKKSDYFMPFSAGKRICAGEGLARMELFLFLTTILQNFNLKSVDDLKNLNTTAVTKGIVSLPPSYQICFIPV
observed property: IC50

- molecule: "C[C@@H]1CCO[C@H]2Cn3cc(C(=O)NCc4ccc(F)cc4F)c(=O)c(O)c3C(=O)N12"
  tested system: "Cytochrome P450 2C8 (Homo sapiens)"
  result: "> 100 µM"

Cited source for all entries: ChEMBL document CHEMBL3526034
